The origin of these recorded values is PubChem BioAssay AID1159580.

I'd be grateful if you could share measured normalized growth for these entries.
- Assay method text: chemical genetic growth profiling, strain panel (AID 1159580);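 note: tested at 20 µM; growth read once vehicle control cultures reached saturation at 30 °C; 1 = growth at the plate median or of vehicle wells; lower values mean less growth of the strain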
- Applied conditions: S. cerevisiae deletion strains, growth OD, locus YDR159W, strain sac3, hits give low values
In all, about 5,500 compounds went through this assay and about 2,000 (36%) were called active. Not shown: some 18% with an inconclusive outcome. The list shows a part of the results.
Answers are plain numbers.

Example entries and their recorded answers appear below.
{"Compound": "CC(C)(Oc1ccc(C2CC2(Cl)Cl)cc1)C(=O)O (configuration not stated)", "normalized growth": 0.997}
{"Compound": "Clc1cccc(Cl)c1NC1=NCCN1", "normalized growth": 1.01}
{"Compound": "CCCOc1ccc(C(=O)OCCN(CC)CC)cc1N", "normalized growth": 1.02}
{"Compound": "O=C1CC2OCC=C3CN4CC[C@]56c7ccccc7N1C5[C@H]2[C@H]3CC46 (some centres not stated)", "normalized growth": 1.01}
{"Compound": "CC(C)(C)CC(C)(C)c1ccc(O)c(Cc2ccc(Cl)cc2Cl)c1", "normalized growth": 1.02}
{"Compound": "C=C1CCC(OC(C)=O)/C(C)=C/C[C@@H]2[C@@H]1CC2(C)C (some centres not stated)", "normalized growth": 1.02}
{"Compound": "CCCCNc1ccc(C(=O)OCCN(C)C)cc1", "normalized growth": 1.01}
{"Compound": "O=c1cc[nH]c(=S)[nH]1", "normalized growth": 1.02}

Look up normalized growth for the entries below, preserving their order.
1. Cc1cc(-c2ccccc2)nnc1NCCN1CCOCC1
2. CCNC(=O)CC[C@H](N)C(=O)O
3. C=C1C(=O)O[C@@H]2C3O[C@]3(C)CC/C=C(\C)CC[C@@H]12 (some centres not stated)
4. CC(=O)N[C@@H](CS)C(=O)O

A:
[1.01, 0.992, 1.02, 1.01]
